Experimental system: T1, MutS (Escherichia coli, UniProt P23909 1-853)
T1 sequence: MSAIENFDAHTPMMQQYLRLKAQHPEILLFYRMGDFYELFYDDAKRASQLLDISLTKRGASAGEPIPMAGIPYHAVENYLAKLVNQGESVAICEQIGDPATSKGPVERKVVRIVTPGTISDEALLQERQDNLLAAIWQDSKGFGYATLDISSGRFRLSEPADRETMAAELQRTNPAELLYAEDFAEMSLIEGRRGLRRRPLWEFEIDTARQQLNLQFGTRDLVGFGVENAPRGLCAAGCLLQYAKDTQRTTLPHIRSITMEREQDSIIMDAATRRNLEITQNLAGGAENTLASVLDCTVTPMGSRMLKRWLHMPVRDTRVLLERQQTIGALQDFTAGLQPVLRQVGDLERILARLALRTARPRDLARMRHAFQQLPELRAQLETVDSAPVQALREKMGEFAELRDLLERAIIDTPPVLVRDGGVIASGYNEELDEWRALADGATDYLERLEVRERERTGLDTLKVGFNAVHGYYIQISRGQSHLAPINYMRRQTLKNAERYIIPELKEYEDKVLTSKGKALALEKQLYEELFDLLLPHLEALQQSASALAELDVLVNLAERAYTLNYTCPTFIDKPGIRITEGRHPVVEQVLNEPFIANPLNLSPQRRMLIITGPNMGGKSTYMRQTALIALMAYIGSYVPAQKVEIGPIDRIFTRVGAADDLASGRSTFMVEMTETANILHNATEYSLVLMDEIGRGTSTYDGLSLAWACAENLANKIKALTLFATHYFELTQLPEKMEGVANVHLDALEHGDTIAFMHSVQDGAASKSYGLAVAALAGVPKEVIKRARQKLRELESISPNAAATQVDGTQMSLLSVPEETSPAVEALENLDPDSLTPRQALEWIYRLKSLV
Method description: EMSA; 5 mM Mg2+; 20 pmol unlabeled GC duplex; 20 mM Tris-HCl pH 7.6, 50 mM KCl, 5 mM MgCl2, 1 mM DTT, 0.05 mg/ml BSA, 37 °C 15 min, 20 μl, 2 pmol labeled duplex, 20 pmol unlabeled GC duplex, 5% native PAGE
Details: protein: recombinant; tags: His6; chain copies: 2; label: 5'-32P (KN-2 or KN-3 strand); O6-MeG:C pair
Measured metric: pKd
One number for each entry, as −log10 of the molar value.

-- ask So what does the record say about pKd for O6-MeG:C duplex (dsDNA, O6-methylguanine opposite C) DNA 1: GGTCGCTGGGGAATGGGAGTGGCCACGGCG DNA 2: CGCCGTGGCCACTCCCATTCCCCAGCGACC ?
-- reply 6.66
